- Procedure Text: Half life in CD-1 mouse at 20 mg/kg, po
- Assay type: ADME, organism-based
- Condition Parameters: in vivo
Observation Type: half-life (h)
Your answer is read as h, so omit the unit and give the number.

What does the data say about its half-life? Entry: "COc1cc(NC(=O)Cn2cc(Cl)c3cc(F)c(-c4cnn(C)c4)cc32)cc(OC)c1OC"
2.16

====

- Procedure Text: Metabolic stability in mouse liver microsome assessed as intrinsic clearance
- Assay type: ADME
- Condition Parameters: microsomes
# key: entry, value: intrinsic clearance (CLint)
Your answer is read as µL/min/mg, so omit the unit and give the number.

What does the data say about its intrinsic clearance (CLint)? Entry: "COc1cc(NC(=O)Cn2ccc3ccc(-c4cn(C)nc4C)cc32)cc(OC)c1OC"
207

What does the data say about its intrinsic clearance (CLint)? Entry: "Cc1nnc(-c2ccc3ccn(CC(=O)Nc4ccccc4Cl)c3c2)o1"
410

What does the data say about its intrinsic clearance (CLint)? Entry: "COc1cc(NC(=O)Cn2ccc3cc(F)c(-c4cnn(C)c4)cc32)cc(OC)c1OC"
90

====

# key: entry, value: EC50
- System: Plasmodium falciparum
- Procedure Text: Antiplasmodial activity against W454-resistant population 1 Plasmodium falciparum 3D7 harboring Plasmodium falciparum ATP4 L928F mutant by LDH assay
- Type: functional, organism-based
Your answer is read as nM, so omit the unit and give the number.

Examples with their reported EC50 follow.
>>> measurement("CCc1nnc(-c2ccc3ccn(CC(=O)Nc4cc(OC)c(OC)c(OC)c4)c3c2)o1")
1940
>>> measurement("N#Cc1cc(NC(=O)[C@H]2c3ccccc3C(=O)N(CC(F)(F)F)[C@@H]2c2cccnc2)ccc1F")
579

Please turn your attention to the following entry.
What does the data say about its EC50? Entry: "COc1cc(NC(=O)Cn2ccc3cc(F)c(-c4cnn(C)c4)cc32)cc(OC)c1OC"
47

====

- System: Plasmodium falciparum
- Procedure Text: Antiplasmodial activity against N-(2,6-difluorophenyl)-2-(6-(5-methyl-1,3,4-oxadiazol-2-yl)-1H-indol-1-yl)acetamide-resistant Plasmodium falciparum Dd2 harboring plasmodium falciparum ATP4 F156L mutant by SYBR green staining based analysis
- Assay type: functional, organism-based
# key: entry, value: EC50
Your answer is read as nM, so omit the unit and give the number.

Examples with their reported EC50 follow.
>>> measurement("Cn1cc(-c2ccc3ccn(CC(=O)Nc4ccccc4Cl)c3c2)cn1")
803
>>> measurement("COc1cc(NC(=O)Cn2ccc3cc(F)c(-c4cnn(C)c4)cc32)cc(OC)c1OC")
40
>>> measurement("C[C@H]1Cc2c([nH]c3cc(Cl)c(F)cc23)[C@@]2(N1)C(=O)Nc1ccc(Cl)cc12")
3

Please turn your attention to the following entry.
What does the data say about its EC50? Entry: "Cc1nnc(-c2ccc3ccn(CC(=O)Nc4ccccc4Cl)c3c2)o1"
1160

====

- Test system: Plasmodium falciparum
- Procedure Text: Antiplasmodial activity against multi-drug resistant Plasmodium falciparum Dd2
- Format: functional, organism-based
# key: entry, value: EC50
Give your result as the value with the unit written after it.

Examples with their reported EC50 follow.
>>> measurement("O[C@@H](c1cc(C(F)(F)F)nc2c(C(F)(F)F)cccc12)[C@H]1CCCCN1 (racemic) [(S,R)-MEFLOQUINE]")
"35 nM"
>>> measurement("Cn1cc(-c2ccc3ccn(CC(=O)Nc4ccccc4Cl)c3c2)cn1")
"385 nM"
>>> measurement("CCc1nnc(-c2ccc3ccn(CC(=O)Nc4cc(OC)c(OC)c(OC)c4)c3c2)o1")
"320 nM"

What does the data say about its EC50? Entry: "COc1cc(NC(=O)Cn2ccc3ccc(-c4nnc(C)o4)cc32)cc(OC)c1OC"
99 nM

====

- Procedure Text: Lipophilicity, logD of compound at pH 7.4 by shake-flask method
- Format: physicochemical
- Condition Parameters: buffer
# key: entry, value: logD
Give a plain numeric answer without units written out.

Examples with their reported logD follow.
>>> measurement("Cn1cc(-c2ccc3c(C#N)cn(CC(=O)Nc4ccccc4Cl)c3c2)cn1")
3
>>> measurement("COc1cc(NC(=O)Cn2cc(Cl)c3cc(F)c(-c4cnn(C)c4)cc32)cc(OC)c1OC")
4.8
>>> measurement("Cn1cc(-c2ccc3ccn(CC(=O)Nc4ccccc4Cl)c3n2)cn1")
3.3
>>> measurement("Cc1nnc(-c2ccc3ccn(CC(=O)Nc4cccnc4Cl)c3c2)o1")
2.1
>>> measurement("COc1cc(NC(=O)Cn2ccc3cc(F)c(-c4cnn(C)c4)cc32)cc(OC)c1OC")
3.2
>>> measurement("Cc1nnc(-c2ccc3ccn(CC(=O)Nc4ccccc4Cl)c3c2)o1")
3.1
>>> measurement("Cn1cc(-c2ccc3ccn(CC(=O)Nc4ccccc4Cl)c3c2)c(C(F)(F)F)n1")
4.7

Please turn your attention to the following entry.
What does the data say about its logD? Entry: "COc1cc(NC(=O)Cn2ccc3ccc(-c4cn(C)nc4C)cc32)cc(OC)c1OC"
3.2

====

- Procedure Text: Metabolic stability in human liver microsome assessed as intrinsic clearance
- Type: ADME
- Condition Parameters: microsomes
# key: entry, value: intrinsic clearance (CLint)

Examples with their reported intrinsic clearance (CLint) follow.
>>> measurement("Cc1nnc(-c2ccc3ccn(CC(=O)Nc4ccccc4Cl)c3c2)o1")
"> 462 µL/min/mg"
>>> measurement("COc1cc(NC(=O)Cn2cc(Cl)c3cc(F)c(-c4cnn(C)c4)cc32)cc(OC)c1OC")
"< 3.5 µL/min/mg"

Please turn your attention to the following entry.
What does the data say about its intrinsic clearance (CLint)? Entry: "Cn1cc(-c2ccc3ccn(CC(=O)Nc4ccccc4Cl)c3c2)cn1"
> 462 µL/min/mg
